Origin of measurements: patent US20260199297A1

Test system: NARF2 cells
Test: Cytotoxicity (methylene blue cell viability), NARF2
Assay type: cell-based, human
Conditions: Table 1; NARF2 osteosarcoma cells; read-out: Half maximal inhibitory concentration (IC50), NARF2
Reported Endpoint: IC50 (nM)
One number for each entry, in nM.

GET /values?readout=IC50&system=NARF2 cells&item= COC(=O)c1ccc([C@@H]2c3[nH]c4ccccc4c3C[C@@H](C(=O)OC)N2C(=O)CCl)cc1 [RSL3, reference compound]
2460

###

Please respond with reported IC50 for every item in the list.
System: NCI-H522 cells
Assay: Cytotoxicity (methylene blue cell viability), NCI-H522
Assay type: cell-based, human
Conditions: Homo sapiens, NCI-H522; Table 3; probes and negative controls; read-out: IC50, NCI-H522

Below, each entry is followed by its recorded IC50 result.
# Molecule, IC50
rows = [
    ("C#Cc1nc(C2=C(C)C(NC(=O)CCCC[C@@H]3SC[C@@H]4NC(=O)N[C@@H]43)CC2)cs1 (stereo partly drawn) [PPb]", "17.9 µM"),
    ("CC1=C(c2csc(Br)n2)CCC1O (stereo not drawn) [compound 13]", "> 20 µM"),
    ("C#CCCC(=O)Nc1ccc(C(=O)c2ccc(NC(=O)CO/N=C3\\CC(c4csc(Br)n4)=C(C)C3O)cc2)cc1 (stereo not drawn) [NPe]", "> 20 µM"),
    ("CC1=C(c2csc(Br)n2)CCC1NC(=O)CCCC[C@@H]1SC[C@@H]2NC(=O)N[C@@H]21 (stereo partly drawn) [NPb]", "> 20 µM"),
]

List reported IC50 for each of these molecules:
1. C#CCO/N=C1\CC(c2csc(Br)n2)=C(C)C1O (stereo not drawn) [NPd]
2. C#CCO/N=C1\CC(c2csc(C#C)n2)=C(C)C1O (stereo not drawn) [PPd]

["> 20 µM", "2.31 µM"]

###

Test system: MEFs (Mouse Embryonic Fibroblasts)
Test: Cytotoxicity on normal cell line MEFs
Format: cell-based
Details: Fibroblast; Table 2; Mouse Embryonic Fibroblasts; read-out: Half maximal inhibitory concentration (IC50), Normal Cell Line Mefs
Reported Endpoint: IC50 (nM)
Give bare numbers, in nM.

Below, each entry is followed by its recorded IC50 result.
# Compound, Units Text, IC50
rows = [
    ("C#Cc1nc(C2=C(C)C(OC(=O)CC)/C(=N/OC(=O)CC)C2)cs1 (stereo not shown) [compound 20b]", "nM", 280),
    ("C#Cc1nc(C2=C(C)C(OC(=O)CCC)/C(=N/OC(=O)CCC)C2)cs1 (stereo not shown) [compound 20c]", "nM", 790),
]

List reported IC50 for each of these compounds:
1. C#Cc1nc(C2=C(C)/C(=N/OCc3ccccc3)CC2)cs1
2. C#Cc1nc(C2=C(C)C(OC(C)=O)/C(=N/OC(C)=O)C2)cs1 (stereo not shown) [compound 20a]

1090
120

###

Tested on: NCI-H522 cells
Assay: Cytotoxicity (methylene blue cell viability), NCI-H522
Assay type: cell-based, human
Details: Homo sapiens, NCI-H522; Table 3; probes and negative controls; read-out: IC50, NCI-H522
Please respond with reported IC50 for every item in the list.
One number for each entry, in µM.

# Compound, IC50 [µM]
records = [
    ("C#Cc1nc(C2=C(C)C(NC(=O)c3cc4ccc(N(CC)CC)cc4oc3=O)CC2)cs1 (stereo not shown)", 4.56),
]

Query compound follows.
Any idea what IC50 was measured for C#CCCC(=O)Nc1ccc(C(=O)c2ccc(NC(=O)CO/N=C3\CC(c4csc(C#C)n4)=C(C)C3O)cc2)cc1 (stereo not shown) ?
2.6

###

Tested on: WI38 cells
Experiment: Cytotoxicity on normal cell line WI38
Type: cell-based, human
Conditions: Homo sapiens, WI-38; Table 2; lung tissue fibroblast; read-out: Half maximal inhibitory concentration (IC50), Normal Cell Line WI38
Reported Endpoint: IC50 (nM)
One number for each entry, in nM.

List reported IC50 for each of these compounds:
1. C#Cc1nc(C2=C(C)/C(=N/OCc3ccccc3)CC2)cs1 [compound 23]
2. C#Cc1nc(C2=C(C)C(OC(C)=O)/C(=N/OC(C)=O)C2)cs1 (stereo not shown) [compound 20a]
3. C#Cc1nc(C2=C(C)C(OC(=O)CC)/C(=N/OC(=O)CC)C2)cs1 (stereo not shown) [compound 20b]
4. C#Cc1nc(C2=C(C)C(OC(=O)CCC)/C(=N/OC(=O)CCC)C2)cs1 (stereo not shown) [compound 20c]

1. 2510
2. 1530
3. 2520
4. 1190

###

Please respond with reported cell viability on liproxstatin-1 co-treatment (rescue) for every item in the list.
Test system: NCI-H522 cells
Format: cell-based
Conditions: human, 3 days
Numbers only, in %.

List reported cell viability on liproxstatin-1 co-treatment (rescue) for each of these compounds:
1. C#CCO/N=C1\CC(c2csc(C#C)n2)=C(C)C1O (stereo not shown)
2. C#CCCC(=O)Nc1ccc(C(=O)c2ccc(NC(=O)CO/N=C3\CC(c4csc(C#C)n4)=C(C)C3O)cc2)cc1 (stereo not shown)

75
45

List reported cell viability on liproxstatin-1 co-treatment (rescue) for each of these compounds:
1. C#Cc1nc(C2=C(C)/C(=N/OCc3ccccc3)CC2)cs1
2. C#Cc1nc(C2=C(C)C(OC(C)=O)/C(=N/OC(C)=O)C2)cs1 (stereo not shown) [compound 20a]

[85, 60]

###

Test system: NCI-H522 cells
Assay: Cytotoxicity (methylene blue cell viability), NCI-H522
Format: cell-based, human
Details: Homo sapiens; cell line not given, value matches NCI-H522 of Table 3; read-out: IC50 (moderate cytotoxicity of PPa)
Reported Endpoint: IC50 (µM)
One number for each entry, in µM.

Any idea what IC50 was measured for C#Cc1nc(C2=C(C)C(NC(=O)c3cc4ccc(N(CC)CC)cc4oc3=O)CC2)cs1 (stereo not shown) [PPa] ?
4.56

###

Tested on: MDA-MB-231 cells
Assay: Cytotoxicity (methylene blue cell viability), MDA-MB-231
Type: cell-based
Conditions: Homo sapiens, MDA-MB-231, read-out: IC50, MDA-MB-231
Reported Endpoint: IC50 (µM)
Numbers only, in µM.

Any idea what IC50 was measured for C#Cc1nc(C2=C(C)C(O)CC2)cs1 (racemic) [CETZOLE 1, reference compound] ?
3.2

###

Tested on: MDA-MB-231 cells
Assay: Cytotoxicity (methylene blue cell viability), MDA-MB-231
Format: cell-based
Details: Homo sapiens; Table 1; MDA-MB-231 breast cancer cell line; read-out: Half maximal inhibitory concentration (IC50), MDA-MB-231
Reported Endpoint: IC50 (µM)
Numbers only, in µM.

Below, each entry is followed by its recorded IC50 result.
# Molecule, Reported Endpoint, Units Text, Value Reported
rows = [
    ("C#Cc1nc(C2=C(C)C(OC(=O)CCCCCCC)/C(=N/OC(=O)CCCCCCC)C2)cs1 (stereo not drawn) [compound 20e]", "IC50", "µM", 19.1),
    ("C#Cc1nc(C2=C(C)C(OC(=O)CCC)/C(=N/OC(=O)CCC)C2)cs1 (stereo not drawn) [compound 20c]", "IC50", "µM", 0.83),
    ("C#Cc1nc(C2=C(C)C(O)/C(=N/O)C2)cs1 (stereo not drawn)", "IC50", "µM", 6.57),
    ("C#Cc1nc(C2=C(C)C(OC(=O)CC)/C(=N/OC(=O)CC)C2)cs1 (stereo not drawn) [compound 20b]", "IC50", "µM", 0.18),
    ("C#Cc1nc(C2=C(C)C(=O)/C(=N/O)C2)cs1", "IC50", "µM", 8.05),
    ("C#Cc1nc(C2=C(C)/C(=N/OCc3ccccc3)CC2)cs1", "IC50", "µM", 4.17),
]

List reported IC50 for each of these molecules:
1. C#Cc1nc(C2=C(C)C(O)/C(=N\OCc3ccccc3)C2)cs1 (stereo not drawn)
2. C#Cc1nc(C2=C(C)C(=O)/C(=N/OC(C)=O)C2)cs1
3. C#Cc1nc(C2=C(C)C(OC(C)=O)/C(=N/OC(C)=O)C2)cs1 (stereo not drawn) [compound 20a]

1. 13.4
2. 18.5
3. 0.23

###

Test system: NCI-H522 GFP-SLC7A11 #8 cells
Experiment: Cytotoxicity (methylene blue cell viability), NCI-H522 clone overexpressing GFP-SLC7A11
Assay type: cell-based, human
Settings: Homo sapiens; Table 1; NCI-H522 clone overexpressing GFP-tagged SLC7A11; read-out: Half maximal inhibitory concentration (IC50), NCI-H522 GFP-SCL7A11 #8
Reported Endpoint: IC50 (µM)
One number for each entry, in µM.

Below, each entry is followed by its recorded IC50 result.
# Compound, IC50 (µM)
rows = [
    ("C#Cc1nc(C2=C(C)C(OC(C)=O)/C(=N/OC(C)=O)C2)cs1 (stereo not drawn) [compound 20a]", 1.59),
    ("C#Cc1nc(C2=C(C)C(O)/C(=N\\OCc3ccccc3)C2)cs1 (stereo not drawn)", 2.17),
]

List reported IC50 for each of these compounds:
1. C#Cc1nc(C2=C(C)C(OC(=O)CC)/C(=N/OC(=O)CC)C2)cs1 (stereo not drawn) [compound 20b]
2. C#Cc1nc(C2=C(C)C(OC(=O)CCC)/C(=N/OC(=O)CCC)C2)cs1 (stereo not drawn) [compound 20c]
3. C#Cc1nc(C2=C(C)/C(=N/OCc3ccccc3)CC2)cs1

2.06
1.93
2.41
